Recorded values, source patent US7648997B2.

Listed here are compounds together with their documented melting point.

Below, each entry is followed by its recorded melting point result.
(Q) GET /values?readout=melting point&item= CCCc1nc2c(N)nc(C)c(C)c2n1CCCONC(C)c1ccccc1 (centres unmarked)
(A) 125 to 127 °C

(Q) Record: "CCCCc1nc2c(N)nc3ccccc3c2n1CCCCONC(C)C"
(A) 115 to 117 °C

(Q) // query: "CCCc1nc2c(N)nc3ccccc3c2n1CCCONC(C)C"
(A) 147 to 150 °C

(Q) Ok, now "CCCc1nc2c(N)nc3ccccc3c2n1CCCONC(=O)C1CC1"
(A) 103 to 105 °C

(Q) // next record "CCOCc1nc2c(N)nc3cc(-c4ccccc4)cnc3c2n1CCCONC(C)C"
(A) 142 to 144 °C

Others:
(Q) Fill blank: measured melting point of the compound "CCCc1nc2c(N)nc3ccccc3c2n1CCCON" is ____.
(A) 145 to 148 °C

(Q) Moving on to the next compound: "CCCc1nc2c(N)nc3cc(-c4ccccc4)ccc3c2n1CCCONC(=O)C(C)C"
(A) 169 to 171 °C

(Q) Lookup "CCCc1nc2c(N)nc3cc(Br)ccc3c2n1CCCONC(=O)C(C)C"
(A) 176 to 178 °C
